Biological target: T1, P2-AA-12HGe-W
T1 chain: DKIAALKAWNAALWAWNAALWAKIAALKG
Experiment: two-hybrid library CCmax;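 further: natural log of median RNA to DNA barcode read ratio; higher means stronger binding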
Conditions: mean of both orientations
// label = met if interaction score is not less than -2, otherwise not met

# binder, group-label
measured = [
    ("DEIAALEASNAALSASNAALSAEIAALEG [P1-AA-12HGe-S]", "met"),
    ("DEIAALEAANAALAAANAALAAEIAALEG [P1-AA-12HGe-A]", "met"),
    ("DEIAALEAHNAALHAHNAALHAEIAALEG [P1-AA-12HGe-H]", "met"),
    ("DEIAALEAWNAALWAWNAALWAEIAALEG [P1-AA-12HGe-W]", "met"),
    ("DEIAALEAYNAALYAYNAALYAEIAALEG [P1-AA-12HGe-Y]", "met"),
    ("DEIAALEAMNAALMAMNAALMAEIAALEG [P1-AA-12HGe-M]", "met"),
    ("DEIAALEAKNAALKAKNAALKAEIAALEG [P1-AA-12HGe-K]", "not met"),
    ("DEIAALEADNAALDADNAALDAEIAALEG [P1-AA-12HGe-D]", "not met"),
]
